target: hNurr1_RXRγFL (NURR1/RXRγ heterodimer) (Homo sapiens, UniProt P43354+P48443); test: Transactivation assay in Cos-7 cells, NURR-1-Gal4 / RXRγ, luciferase reporter; settings: Cos-7 cells, overnight incubation
Sequence (P43354 328-598): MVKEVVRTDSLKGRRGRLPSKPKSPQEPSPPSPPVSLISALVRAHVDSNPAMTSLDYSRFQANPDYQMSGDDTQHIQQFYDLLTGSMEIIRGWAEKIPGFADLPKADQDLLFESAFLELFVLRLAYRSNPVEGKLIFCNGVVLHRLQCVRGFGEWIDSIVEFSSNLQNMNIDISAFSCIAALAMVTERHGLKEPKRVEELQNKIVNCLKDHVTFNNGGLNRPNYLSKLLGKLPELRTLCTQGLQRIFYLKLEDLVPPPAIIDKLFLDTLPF
Sequence (P48443 whole entry, the tested form may be a part): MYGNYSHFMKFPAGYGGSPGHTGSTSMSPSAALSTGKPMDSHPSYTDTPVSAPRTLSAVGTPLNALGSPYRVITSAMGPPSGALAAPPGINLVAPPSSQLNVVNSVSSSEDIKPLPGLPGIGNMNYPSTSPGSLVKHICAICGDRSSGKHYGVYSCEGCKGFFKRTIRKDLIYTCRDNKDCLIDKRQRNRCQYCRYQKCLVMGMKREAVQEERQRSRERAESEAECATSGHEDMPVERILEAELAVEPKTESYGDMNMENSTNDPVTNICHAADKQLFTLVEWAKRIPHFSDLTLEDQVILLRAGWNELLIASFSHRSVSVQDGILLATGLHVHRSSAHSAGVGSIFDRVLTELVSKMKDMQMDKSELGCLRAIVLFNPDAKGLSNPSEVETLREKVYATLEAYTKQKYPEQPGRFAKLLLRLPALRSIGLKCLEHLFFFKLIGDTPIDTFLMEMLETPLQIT
pEC50: −log10 of the molar value.
So basically: pEC50 at 6 or higher? That is true (1). Lower than 6? That is false (0).

Would you please look over these solved cases?
Cc1cccc(S(=O)(=O)n2c(Cc3ccc(C(=O)O)cc3)cc3cc(Cl)ccc32)c1
true (1)
CC(C)(C)c1cccc(S(=O)(=O)n2c(Cc3ccc(C=C4SC(=S)NC4=O)cc3)cc3cc(C(F)(F)F)ccc32)c1
false (0)
CCC(C)(C)c1ccc(S(=O)(=O)n2c(Cc3ccc(C(=O)O)cc3)cc3cc(C(F)(F)F)ccc32)cc1
true (1)

Tell me whether pEC50 is at least 6 here: CCCCCc1ccc(S(=O)(=O)n2c(Cc3ccc(C(=O)O)cc3)cc3cc(C(F)(F)F)ccc32)cc1 true (1)

Quick check: does COC(=O)c1ccc(Cc2cc3cc(C(F)(F)F)c(F)cc3n2S(=O)(=O)c2cccc(C(C)(C)C)c2)cc1 have pEC50 greater than or equal to 6? true (1)

Does CC(C)c1cccc(S(=O)(=O)n2c(Cc3ccc(C(=O)O)cc3)cc3cc(C(F)(F)F)ccc32)c1 [Example 32] have a reported pEC50 of at least 6? true (1)

Identify whether the reported pEC50 of the following compound is 6 or greater: CCCOc1ccc(S(=O)(=O)n2c(Cc3ccc(C(=O)O)cc3)cc3cc(C(F)(F)F)ccc32)cc1 true (1)

Decide: is the reported value of pEC50 for CC(C)(C)c1cccc(S(=O)(=O)n2c(Cc3ccc(C(=O)NS(=O)(=O)c4ccccc4)cc3)cc3cc(C(F)(F)F)ccc32)c1 equal to or greater than 6? true (1)

The origin of these recorded values is patent US20120232070A1.
